assay-summary: in vivo
Parameters: species or system mice
condition: mouse, IP, single dose, suspension in carboxymethyl cellulose (2%)
So I've got a bunch of molecules here, and I need their LD50 values.

Req: Need LD50 of `CCCCn1c(/C=C/CO)c(CO)c2c1C(=O)C=C(N1CC1)C2=O` , thanks.
Resp: 50 to 80 mg/kg

Req: Need LD50 of `CCCCn1c(/C=C/CO)c(CO)c2c1C(=O)C=C(OC)C2=O` , thanks.
Resp: 80 mg/kg

Req: Need LD50 of `COC1=CC(=O)c2c(c(CO)c(/C=C/CO)n2C)C1=O` , thanks.
Resp: > 100 mg/kg

Req: Need LD50 of `Cn1c(/C=C/CO)c(CO)c2c1C(=O)C=C(N1CC1)C2=O` , thanks.
Resp: 10 mg/kg

Req: Need LD50 of `COC1=CC(=O)c2c(c(COC(C)=O)c(/C=C/COC(C)=O)n2C)C1=O` , thanks.
Resp: 10 to 30 mg/kg

Req: Need LD50 of `COC(=O)OC/C=C/c1c(COC(=O)OC)c2c(n1C)C(=O)C=C(OC)C2=O` , thanks.
Resp: 30 to 100 mg/kg

* * *

Tested on: IgR37 cells melanoma
assay-summary: In vitro panel of human tumour lines (TNO): IgR-37; further: key: -: no inhibition of cell growth; +: total cell-kill
Type: cell-based
condition: 1.0 μg/ml, about 72 hours
reported-property: in vitro activity score, IgR-37

COC(=O)/C=C/c1c(C(=O)OC)c2c(n1C)C(=O)C=C(N1CC1)C2=O [E.O. 22] = +
CC(=O)OC/C=C/c1c(COC(C)=O)c2c(n1C)C(=O)C=C(N1CC1)C2=O [E.O. 4] = +
CC1CN1C1=CC(=O)c2c(c(CO)c(/C=C/CO)n2C)C1=O (stereo not shown) [E.O. 8] = -
COC(=O)OC/C=C/c1c(COC(=O)OC)c2c(n1C)C(=O)C=C(OC)C2=O [E.O. 2] = -

* * *

Tested on: IgR37 cells melanoma
assay-summary: In vitro panel of human tumour lines (TNO): IgR-37; further: key: -: no inhibition of cell growth; +: total cell-kill
Type: cell-based
condition: 1.0 μg/ml, about 72 hours
reported-property: in vitro activity score, IgR-37

CO[C@@]12[C@H](COC(N)=O)C3=C(C(=O)C(C)=C(N)C3=O)N1C[C@@H]1N[C@@H]12 [MMC, mitomycin C, reference compound] = +
CC(=O)OCc1c2c(n(C)c1/C=C/CO)C(=O)C=C(N1CC1)C2=O = +
COC1=C(C)C(=O)c2c(c(COC(C)=O)c(/C=C/COC(C)=O)n2C)C1=O = -
Cn1c(/C=C/CO)c(CO)c2c1C(=O)C=C(N1CC1)C2=O = +

* * *

System: WiDr cells; colon tumour
assay-summary: In vitro panel of human tumour lines (TNO): WiDr; further: key: -: no inhibition of cell growth; +: total cell-kill
Assay type: cell-based
condition: 0.1 μg/ml, about 72 hours
reported-property: in vitro activity score, WiDr

CC(=O)OCc1c2c(n(C)c1/C=C/CO)C(=O)C=C(N1CC1)C2=O = -
COC(=O)/C=C/c1c(C(=O)OC)c2c(n1C)C(=O)C=C(N1CC1)C2=O = -
CC(=O)OC/C=C/c1c(COC(C)=O)c2c(n1C)C(=O)C=C(N1CC1)C2=O = -
COC1=CC(=O)c2c(c(COC(C)=O)c(/C=C/COC(C)=O)n2C)C1=O = -
COC1=C(C)C(=O)c2c(c(COC(C)=O)c(/C=C/COC(C)=O)n2C)C1=O = -
Cn1c(/C=C/CO)c(CO)c2c1C(=O)C=C(N1CC1)C2=O = +

Req: Lab request: please report in vitro activity score, WiDr under test system WiDr cells; colon tumour for `CC(=O)OC/C=C/c1c(COC(C)=O)c2c(n1C)C(=O)C(C)=C(N1CC1)C2=O`
Resp: -

Req: Lab request: please report in vitro activity score, WiDr under test system WiDr cells; colon tumour for CCC1(O)CC2CN(CCc3c([nH]c4ccccc34)C(C(=O)OC)(c3cc4c(cc3OC)N(C=O)C3C(O)(C(=O)OC)C(OC(C)=O)C5(CC)C=CCN6CCC43C65)C2)C1 (stereo not shown) [Vincrist., reference compound]
Resp: +

Req: Lab request: please report in vitro activity score, WiDr under test system WiDr cells; colon tumour for CC1CN1C1=CC(=O)c2c(c(CO)c(/C=C/CO)n2C)C1=O (stereo not shown)
Resp: -

The values you see were collected from patent US5079257A.
